Measured EC50, listed per entry for reference.
molecular target: human D2R/β-arrestin (Homo sapiens (Human), UniProt P14416); experiment: β-arrestin agonist assay (PathHunter); assay type: cell-based; conditions: CHO-K1 cells expressing human D2R/β-arrestin; agonist mode
Sequence (P14416 whole entry): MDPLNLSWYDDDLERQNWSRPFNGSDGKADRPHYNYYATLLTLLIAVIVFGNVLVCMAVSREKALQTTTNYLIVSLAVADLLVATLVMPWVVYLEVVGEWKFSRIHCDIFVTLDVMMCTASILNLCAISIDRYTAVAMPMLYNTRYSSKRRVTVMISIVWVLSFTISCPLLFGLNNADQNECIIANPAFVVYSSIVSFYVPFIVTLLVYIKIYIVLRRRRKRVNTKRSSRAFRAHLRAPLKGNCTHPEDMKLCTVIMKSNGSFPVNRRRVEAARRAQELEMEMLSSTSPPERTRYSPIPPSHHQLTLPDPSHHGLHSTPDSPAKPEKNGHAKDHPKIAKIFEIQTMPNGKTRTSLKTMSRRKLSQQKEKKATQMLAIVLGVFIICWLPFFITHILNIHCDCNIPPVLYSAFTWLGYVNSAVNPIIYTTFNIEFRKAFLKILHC
Measurement label: EC50

1. CC1(Oc2ccc(Cl)cc2)CCN(CC(=O)Nc2ccccc2C(F)(F)F)CC1 | > 30 µM
2. CC1(Oc2ccc(Cl)cc2)CCN(CCOc2cc(Cl)ccc2C(F)(F)F)CC1 | 10 to 30 µM
3. CC1(Oc2ccc(Cl)cc2)CCN(CCOc2ccccc2)C1 (stereo not drawn) | > 30 µM
4. CC1(Oc2ccccc2)CCN(CCOc2ccccc2OC(F)(F)F)CC1 | > 30 µM
5. CC1(Oc2ccc(Cl)cc2)CCN(CCOc2ccc3ccccc3c2)C1 (stereo not drawn) | > 30 µM
6. CC1(Oc2ccc(Cl)cc2)CCN(CCOc2ccc(Cl)c(Cl)c2)C1 (stereo not drawn) | > 30 µM
7. Cc1ccc(OCCN2CCC(C)(Oc3ccc(Cl)cc3)CC2)cc1 | 0.1 to 1 µM
8. CC1(Oc2ccccn2)CCN(CCOc2ccccc2)C1 (stereo not drawn) | > 30 µM
9. C#CC1(O)CCN(CCOc2ccccc2C(F)(F)F)CC1 [Compound 302, reference compound] | > 30 µM
